test system: UACC-62 melanoma; experiment: NCI-60 one-dose screen, 48 h (100 = growth as untreated, 0 = no growth, -100 = all killed); conditions: 10 µM unless noted
The panel holds about 83,000 compounds, 20% with a hit somewhere; the sample as a whole holds those more often. Activity calls are given as the source filed them. How the source made its calls: active means growth percent below 10; inactive means the rest.
growth listing for selected compounds.
QUANTITY_MEASURED: growth

1. O=C(/C=C/C=C/c1ccc2c(c1)OCO2)N/N=C\c1ccc(O)cc1O: 14.3% (inactive)
2. COc1ccc(-c2cc(NC(=O)Nc3ccc4ncsc4c3)no2)cc1: 95.9% (inactive)
3. CSc1nc(NCCN2CCOCC2)c(C#N)c(-c2cccc([N+](=O)[O-])c2)n1: 87.4% (inactive)
4. CN(C)C(=S)N=Nc1c(O)[nH]c2ccccc12: -16.9% (active)
5. CC(=O)c1nc2ccccc2n1CC(=O)c1cccc(Cl)c1: 31.5% (inactive)
6. C=CCSSC1N=CNc2nc[nH]c21 (stereo unspecified): 16.8% (inactive)

###

system: CCRF-CEM leukemia; test: NCI-60 one-dose screen, 48 h (100 = growth as untreated, 0 = no growth, -100 = all killed); details: 10 µM unless noted
Compounds without any hit were thinned out: in the full panel of roughly 83,000, 20% have a hit.
QUANTITY_MEASURED: growth (%)

1. Cc1cc(NS(=O)(=O)c2ccc(-c3cnc(C4CC4)o3)cc2)ccc1Cl: 14.4
2. Cc1nn(-c2ccc(F)cc2)c2ncnc(Oc3ccc(NC(=O)Nc4ccc(Cl)c(C(F)(F)F)c4)cc3)c12: 102
3. CN1CCN(c2nc(NCCCNc3ccnc4cc(Cl)ccc34)c3ccccc3n2)CC1: 18.6
4. O=C1CC(=NCC(=O)n2c(-c3ccccc3)nc3ccccc32)NN1: 107
5. COc1cc(/C=C/C(=O)c2cccnc2Nc2ccc(F)cc2)cc(OC)c1OC: -10.6

###

system: LOX IMVI melanoma; assay: NCI-60 one-dose screen, 48 h; conditions: 10 µM unless noted
About 83,000 compounds went through this panel and 20% of them were active in at least one assay; those are over-represented in the sample as a whole. Active and inactive are the calls of the source. Rule for the calls: active = growth percent below 10; inactive = the rest.
Labels: active, inactive

1) CC(O)CN1CC(O)=C(c2nc3ccccc3s2)C1=N (configuration not stated): inactive
2) Cc1ccc2c(C(C[N+](=O)[O-])c3ccco3)c(-c3ccccc3)[nH]c2c1 (configuration not stated): inactive
3) O=C(Cc1ccccc1Nc1c(Cl)cccc1Cl)NN1C(=O)/C(=C/c2ccc(Br)cc2)SC1=S: inactive
4) CCN(CC)S(=O)(=O)c1ccc(OC)c(NC(=O)c2[nH]c(C)c3c2CCCCC3=O)c1: active
5) O=c1oc2c(C(F)(F)F)cccc2cc1-c1csc(Nc2ccc(OCCF)cc2)n1: inactive
6) Cc1nc(/N=C(\N)NC(=O)Nc2cccc([N+](=O)[O-])c2)sc1C: inactive
7) FC(F)(F)c1ccc(-c2cn3nc(-c4c[nH]c5ccc(Br)cc45)sc3n2)cc1: inactive
8) Cn1nc(N)c2cc([C@@H]3Nc4ccc5[nH]ncc5c4[C@H]4C5CCC(C5)[C@@H]34)ccc21 (some centres not stated): inactive
9) CCC#CC[C@H](O)C/C=C1/C(=O)C=C[C@@H]1C/C=C\CCCC(=O)OC: active
10) CCCc1cc(=O)n2c(C(=O)Nc3ccc(F)cc3)c(C(=O)Nc3ccc(F)cc3)sc2n1: inactive
11) C=C1c2nc3ccccc3n2C=C(c2ccc(Cl)cc2)N1Cc1ccc(OC)cc1: inactive
12) COc1cc(/C=C/C(=O)c2ccc(O)c(CN3CCN(c4cc5c(cc4F)c(=O)c(C(=O)O)cn5C4CC4)CC3)c2)cc(OC)c1OC: inactive
13) COc1cccc(/C=C2\SC(=Nc3ccc(NC(C)=O)cc3)NC2=O)c1OC: inactive
14) C=C1C(=O)O[C@H]2[C@H]1CC/C(COC(=O)NCc1ccc(OC)c(OC)c1)=C\CC[C@@]1(C)O[C@@H]21: inactive
15) C=CCSSC1N=CNc2nc[nH]c21 (configuration not stated): active
16) O=C1Nc2c(ccc(Cl)c2Cl)/C1=C\c1ccc(C(F)(F)F)cc1: inactive
17) COc1ccc(-c2nn(-c3ccc(Cl)cc3)cc2-c2nc3ccccc3[nH]2)cc1: inactive
18) OCC(O)c1nc2ccc3[nH]ncc3c2c2c1CCCC2 (configuration not stated): active
19) O=C1c2ccccc2OC=C(c2ccccc2)N1CCCCNc1ccc(S(=O)(=O)Nc2ncccn2)cc1: inactive
20) COc1ccccc1NS(=O)(=O)c1ccc2oc(SC(C)C)nc2c1: inactive
21) CCc1nnc(CNc2ccc(Cl)cc2)o1: inactive
22) Cc1nc2ccccc2n1C(=O)C[C@@H]1NC(=S)NC1=O: inactive
